Reported T/C values are given for each entry in this list.
system: BDF1 mice, P388 leukemia ip, median survival T/C; assay: NCI In Vivo Anticancer Drug Screen. Data for tumor model P388 Leukemia (intraperitoneal) in B6D2F1 (BDF1) mice; details: endpoint: median survival time; dose: 200.0 mg/kg/injection; schedule: Q04DX003 (ip); vehicle: saline; higher = longer survival
Toxic doses and inconclusive results are not listed. Non-standard residues stand in square brackets, D forms with d. Residues, ends and D or L forms follow the SMILES beside them. ξ: configuration not given here. *: point of attachment. Boc = CC(C)(C)OC(=O)*; ξP = O=C(O)C1CCCN1

COMPOUND: Clc1ncnc2c1ncn2C1CCCO1 (stereo not given)
T/C: 104 % of control
//
COMPOUND: O=C1CCC(=O)C12CCNCC2
T/C: 100 % of control
//
COMPOUND: COC(=O)CNC(=O)C1CCCN1C(=O)OC(C)(C)C (stereo not given) (Boc-[ξP]-Gly-OMe)
T/C: 105 % of control
//
COMPOUND: Cc1ccc(NCc2cccc3ccccc23)c(C)c1
T/C: 100 % of control
//
COMPOUND: NC(N)=NCCCC(=O)O
T/C: 100 % of control
//
COMPOUND: OCCNCc1ccc2ccccc2n1
T/C: 100 % of control
//
COMPOUND: CC1(C)c2ccccc2C(=O)C1Cc1ccccc1 (stereo not given)
T/C: 119 % of control
//
COMPOUND: Nc1nc2c(c(=O)[nH]1)N(C=O)C(CNc1ccc(C(=O)N[C@@H](CCC(=O)O)C(=O)O)cc1)CN2 (stereo not given in full)
T/C: 104 % of control
//
COMPOUND: COc1ccc(/C=C/C(=N\O)c2ccc(OC)c(OC)c2)cc1OC
T/C: 114 % of control
//
COMPOUND: Cc1ccc(-n2nnc3ccccc3c2=O)cc1C
T/C: 104 % of control
//
COMPOUND: CC(=O)Oc1ccc(OC(C)=O)c2c1CC(C)=C(C)C2
T/C: 116 % of control
//
COMPOUND: COC(=O)OCCOC(=O)OC
T/C: 100 % of control
//
COMPOUND: Cc1cccc(NS(=O)(=O)c2ccc(Cl)cc2)c1C
T/C: 95 % of control
//
COMPOUND: COC(=O)C1CCN1C(C)(C)C (stereo not given)
T/C: 90 % of control
//
COMPOUND: CCOC(=O)c1cnc(C)[nH]c1=O
T/C: 86 % of control
//
COMPOUND: Oc1ccc(N=Cc2ccccc2O)cc1
T/C: 100 % of control
//
COMPOUND: NC(=O)NCCNC(N)=O
T/C: 95 % of control
//
COMPOUND: C/C(=C/c1c(C)[nH]c(=O)[nH]c1=O)C(=O)O
T/C: 91 % of control
//
COMPOUND: Nc1ccn(C2OC(COC3CCCCO3)C(OC3CCCCO3)C2OC2CCCCO2)c(=O)n1 (stereo not given)
T/C: 86 % of control
//
COMPOUND: C(/C=C/C=C/Nc1ccc(N=Nc2ccccc2)cc1)=Nc1ccc(N=Nc2ccccc2)cc1
T/C: 104 % of control
//
COMPOUND: Cc1c(C)c2ccc(N)cc2[nH]c1=O
T/C: 104 % of control
//
COMPOUND: CCOP(=O)(OCC)OCCCN(CC)CC
T/C: 110 % of control
//
COMPOUND: O=c1[nH]cc(CCCO)c(=O)[nH]1
T/C: 100 % of control
//
COMPOUND: COc1ccc(CN(CCO)C(C)=O)cc1
T/C: 100 % of control
//
COMPOUND: NC(=O)N(CCO)CCO
T/C: 100 % of control
//
COMPOUND: CC#CCOCC1CO1 (stereo not given)
T/C: 100 % of control
//
COMPOUND: NC(=O)c1nc2c([nH]c1=O)CCCC2
T/C: 104 % of control
//
COMPOUND: O=c1[nH]c2nc(Cl)c(Cl)nc2[nH]1
T/C: 111 % of control
//
COMPOUND: CC1=CC(=O)OC(C)(C)C1
T/C: 100 % of control
//
COMPOUND: O=CN(c1ccccc1)c1ccccc1
T/C: 100 % of control
//
COMPOUND: CN(C)C(=S)S
T/C: 105 % of control
//
COMPOUND: CC(C)C1C(=O)N2CCCC2C2(O)OC(NC(=O)C3C=C4c5cccc6[nH]cc(c56)CC4N(C)C3)(C(C)C)C(=O)N12 (stereo not given)
T/C: 120 % of control
//
COMPOUND: COC1C(OC(=O)/C=C/C=C/C=C/C=C/C(=O)O)CCC2(CO2)C1C1(C)OC1CC=C(C)C (stereo not given)
T/C: 117 % of control
//
COMPOUND: CCOc1ccc(Br)cc1/C=C/C(C)=O
T/C: 95 % of control
//
COMPOUND: C[N+](C)(C)CC[N+](C)(C)C
T/C: 118 % of control
